Listed here: items and their measured TGI.
# System: MOLT-4 leukemia
# procedure_details: NCI tumour cell line growth inhibition, 48 h
value_type: TGI

>>> meas_value("CCNCc1c(-c2cccc(OC(F)(F)F)c2)[nH]c2ccc(N3CCCC3)cc2c1=O")
"37.3 µM"
>>> meas_value("COc1cc2c3c(n(CCCNC4CCC4)c(=O)c2cc1OC)-c1cc2c(cc1C3=O)OCO2")
"1.91 µM"
>>> meas_value("O=C(NNc1nc2cc(F)c(F)cc2n2cccc12)c1ccncn1")
"> 30 µM"
>>> meas_value("O=C1[C@@H]2Cc3c([nH]c4ccccc34)[C@H](c3c(Cl)cccc3Cl)N2C(=O)CN1C1CCN(Cc2ccccc2)CC1")
"13.8 µM"

----------
molecules and their reported GI50
# System: NCI-H226 lung
# procedure_details: NCI tumour cell line growth inhibition, 48 h
value_type: GI50

>>> meas_value("CCNCc1c(-c2cccc(OC(F)(F)F)c2)[nH]c2ccc(N3CCCC3)cc2c1=O")
"9.29 µM"
>>> meas_value("O=C(Nc1ccc(Br)cc1)Nc1nc2ccc([N+](=O)[O-])cc2s1")
"1.44 µM"
>>> meas_value("C#C[C@]1(O)CC[C@H]2[C@@H]3CC=C4c5sc(Nc6nc(C)cc(OC)n6)nc5CC[C@]4(C)[C@H]3CC[C@@]21C")
"> 100 µM"
>>> meas_value("COc1cc2c3c(n(CCCNC4CCC4)c(=O)c2cc1OC)-c1cc2c(cc1C3=O)OCO2")
"5.54 µM"

----------
# Test system: SF-268 CNS
# procedure_details: NCI tumour cell line growth inhibition, 48 h
value_type: TGI

>>> meas_value("COc1cc2c3c(n(CCCNC4CCC4)c(=O)c2cc1OC)-c1cc2c(cc1C3=O)OCO2")
"2.83 µM"
>>> meas_value("O=C1[C@@H]2Cc3c([nH]c4ccccc34)[C@H](c3c(Cl)cccc3Cl)N2C(=O)CN1C1CCN(Cc2ccccc2)CC1")
"10.8 µM"
>>> meas_value("O=C(Nc1ccc(Br)cc1)Nc1nc2ccc([N+](=O)[O-])cc2s1")
"5.44 µM"
>>> meas_value("O=C(NNc1nc2cc(F)c(F)cc2n2cccc12)c1ccncn1")
"9.39 µM"

----------
# Test system: NCI-H460 lung
# procedure_details: NCI tumour cell line growth inhibition, 48 h
value_type: TGI

>>> meas_value("O=C(NNc1nc2cc(F)c(F)cc2n2cccc12)c1ccncn1")
"9.46 µM"
>>> meas_value("CCNCc1c(-c2cccc(OC(F)(F)F)c2)[nH]c2ccc(N3CCCC3)cc2c1=O")
"16.2 µM"
>>> meas_value("COc1cc2c3c(n(CCCNC4CCC4)c(=O)c2cc1OC)-c1cc2c(cc1C3=O)OCO2")
"1.66 µM"
>>> meas_value("O=C(Nc1ccc(Br)cc1)Nc1nc2ccc([N+](=O)[O-])cc2s1")
"3.08 µM"
